# TARGET UNDER TEST: purified human Factor XIa (Homo sapiens (Human))
# Sequence (P03951 388-625): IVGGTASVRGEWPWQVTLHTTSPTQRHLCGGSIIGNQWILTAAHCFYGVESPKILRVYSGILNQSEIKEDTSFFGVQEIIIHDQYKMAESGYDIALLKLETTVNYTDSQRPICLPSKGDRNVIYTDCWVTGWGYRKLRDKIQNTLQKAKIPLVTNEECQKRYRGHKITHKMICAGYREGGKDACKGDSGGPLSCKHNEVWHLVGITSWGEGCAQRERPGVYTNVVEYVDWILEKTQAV
# Sequence (P03951 19-387 partner): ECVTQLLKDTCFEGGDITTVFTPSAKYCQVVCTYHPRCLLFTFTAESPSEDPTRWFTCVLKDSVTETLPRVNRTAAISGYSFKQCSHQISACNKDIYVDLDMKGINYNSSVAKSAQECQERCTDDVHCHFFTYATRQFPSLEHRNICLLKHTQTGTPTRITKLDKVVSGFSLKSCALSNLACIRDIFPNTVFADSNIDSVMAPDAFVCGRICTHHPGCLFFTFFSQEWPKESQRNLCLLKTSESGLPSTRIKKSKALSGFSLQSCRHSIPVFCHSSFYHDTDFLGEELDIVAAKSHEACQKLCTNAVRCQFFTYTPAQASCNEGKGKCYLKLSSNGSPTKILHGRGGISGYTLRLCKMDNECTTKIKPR
Task for the reader: assign each of the following molecules its reported pKi.
Give bare numbers, as −log10 of the molar value.

{"MOLECULE": "N=C(N)N1CCC(CNC(=O)C2CC=CCCC(=O)Nc3ccccc3C(=O)N2)CC1 (racemic)", "pKi": 5.85}

# return pKi for each item in the list
1. COC(=O)Nc1ccc2c(c1)NC(=O)CCCCCC(C(=O)NCCc1cc(Cl)ccc1-n1cnnn1)NC2=O (racemic) [Example 1]
2. N=C(N)N1CCC(NC(=O)C2C/C=C\CCC(=O)Nc3ccccc3C(=O)N2)CC1 (racemic)
3. COC(=O)Nc1ccc2c(c1)NC(=O)CCCCCC(C(=O)NC1CCN(C(=N)N)CC1)NC2=O (racemic)
4. COC(=O)Nc1ccc2c(c1)NC(=O)CCCCCC(C(=O)NCCC1CCN(C(=N)N)CC1)NC2=O (racemic)
5. COC(=O)Nc1ccc2c(c1)NC(=O)CCCCCC(C(=O)NCCc1cc(Cl)ccc1-n1cnnn1)NC2=O (single isomer, unassigned) [Example 3]

A:
1. 7.75
2. 5.66
3. 5.83
4. 6.20
5. 7.38
